Reference for the values: patent US12195439B1

molecular target: 5-HT2B receptor (Homo sapiens); construct: host or cells: CHO cells (membrane preparation); experiment: Eurofins Cerep competition binding assay at 5-HT2B receptor; conditions: 10 μM test ligand, [3H]mesulergine, recombinant receptor from CHO cells
Sequence (P41595 whole entry): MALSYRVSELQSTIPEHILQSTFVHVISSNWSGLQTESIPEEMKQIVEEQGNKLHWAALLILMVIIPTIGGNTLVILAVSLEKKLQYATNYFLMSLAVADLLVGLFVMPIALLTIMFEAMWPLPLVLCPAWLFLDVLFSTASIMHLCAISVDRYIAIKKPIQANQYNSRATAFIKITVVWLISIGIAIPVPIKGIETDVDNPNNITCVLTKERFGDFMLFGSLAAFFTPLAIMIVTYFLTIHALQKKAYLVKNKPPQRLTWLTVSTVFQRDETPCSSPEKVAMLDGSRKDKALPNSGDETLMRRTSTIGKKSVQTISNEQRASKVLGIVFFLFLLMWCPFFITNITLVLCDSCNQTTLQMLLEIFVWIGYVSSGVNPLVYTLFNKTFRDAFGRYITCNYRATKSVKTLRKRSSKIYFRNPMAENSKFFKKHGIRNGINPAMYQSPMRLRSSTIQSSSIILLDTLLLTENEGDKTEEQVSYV
readout-type: HT2B, percent of control-specific binding
Write the numeric value and follow it with the unit.

Recorded results for 3 compounds are shown here.
COc1cc(CCN)c(OC)cc1Br; 99%
CCOc1c(OC)cc(CCN)cc1OC; 81%
COc1cc(CC(C)N)c(OC)cc1Br (stereo not shown); 97%

# evaluate next
The reported HT2B, percent of control-specific binding value, 5-HT2B receptor (Homo sapiens), for CNC(C)Cc1ccc2c(c1)OCO2 (stereo not shown) reads 85%
